molecular target: Rap guanine nucleotide exchange factor 3 (Homo sapiens) (UniProt O95398); experiment: Confirmatory qHTS for antagonist of cAMP-regulated guanine nucleotide exchange factor 3 (EPAC1) (AID 1645880); conditions: EPAC1 Rap1B-BODIPY-GDP exchange, fluorescence; also: nearly all actives have a fitted effect of over 55% in size
Sequence (O95398 whole entry, looked up): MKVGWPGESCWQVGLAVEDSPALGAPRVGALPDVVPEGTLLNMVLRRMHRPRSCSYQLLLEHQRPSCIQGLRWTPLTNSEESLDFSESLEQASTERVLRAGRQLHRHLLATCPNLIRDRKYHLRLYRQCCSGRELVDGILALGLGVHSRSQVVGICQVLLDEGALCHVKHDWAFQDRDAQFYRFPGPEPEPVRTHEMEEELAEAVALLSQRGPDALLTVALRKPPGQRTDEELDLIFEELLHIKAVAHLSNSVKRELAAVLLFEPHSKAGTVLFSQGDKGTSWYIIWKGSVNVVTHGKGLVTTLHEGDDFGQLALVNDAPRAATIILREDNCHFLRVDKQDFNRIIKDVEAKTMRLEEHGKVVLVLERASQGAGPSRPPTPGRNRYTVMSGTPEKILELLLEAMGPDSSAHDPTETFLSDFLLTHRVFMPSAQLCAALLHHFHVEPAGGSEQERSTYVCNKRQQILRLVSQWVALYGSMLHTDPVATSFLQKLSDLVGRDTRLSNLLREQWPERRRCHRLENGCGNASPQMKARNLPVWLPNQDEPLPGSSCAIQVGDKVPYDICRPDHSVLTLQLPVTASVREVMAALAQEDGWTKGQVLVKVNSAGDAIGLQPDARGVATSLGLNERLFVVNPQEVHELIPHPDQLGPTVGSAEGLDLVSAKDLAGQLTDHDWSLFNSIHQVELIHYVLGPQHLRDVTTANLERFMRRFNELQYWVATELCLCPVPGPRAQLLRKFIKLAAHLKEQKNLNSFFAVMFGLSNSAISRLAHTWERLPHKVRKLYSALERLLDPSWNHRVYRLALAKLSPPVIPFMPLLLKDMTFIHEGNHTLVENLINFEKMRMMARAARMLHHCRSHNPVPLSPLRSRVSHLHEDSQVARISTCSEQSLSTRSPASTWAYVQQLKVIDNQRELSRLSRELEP
Inconclusive results are not listed. Active and inactive are the calls of the source. Calls follow the shape of the dose curve; as a rule, active = well fitted inhibition curve with a large enough effect; inconclusive = small, poorly fitted or top-dose-only effect; inactive = no such curve, though single readings can be large or run the other way.
Classes used: t = active, f = inactive

| COMPOUND | ASSIGNED LABEL |
| --- | --- |
| COC(=O)CSc1ncnc2scc(-c3ccccc3)c12 | f |
| N=c1c(S(=O)(=O)c2ccc(Br)cc2)cc2c(=O)n3ccccc3nc2n1C1CCCC1 | f |
| O=C1/C(=C\c2cccnc2)Sc2ccccc21 | f |
| O=C1COc2ccc(C(=O)COC(=O)c3ccc4ccccc4n3)cc2N1 | t |
| Cc1cc(C(=O)c2ccc3ccccc3c2)c(C)o1 | f |
| CCCCN(C(=O)c1ccc2c(c1)OCO2)c1ccccc1 | f |
| c1ccc(CNc2c(-c3cccc(SC4CCCCC4)c3)nc3ccccn23)cc1 | f |
| CCOC(=O)C1CCCN(c2c(C(=O)c3ccccc3)cnc3ccc(OC)cc23)C1 (centres undefined) | f |
| COc1ccc(CNc2nc(-c3cccnc3)nc3ccccc23)c(OC)c1 | f |
